Biological target: HLA-DQ molecule DQB1*0503 (human)
Assay: inhibition of radiolabeled peptide binding to purified HLA-DQ
pIC50: −log10 of the molar value.
Items are presented alongside their recorded pIC50.
result.type: pIC50

> print(dat)
                                     binder  measured.value
1  GSDEKNLALSIKYNK [Dac g 2 (11-25) peptide GSDEKNLALSIKYNK]            4.30
2  ASEVFKAVEAYLVAH [Que a 1 (141-155) peptide ASEVFKAVEAYLVAH]            5.69
3  IVYIKPAKNIYSFNE [Bet v 6 (211-225) peptide IVYIKPAKNIYSFNE]            6.19
4  ERSLWIIFSKNLNIK [Cha o 1 (86-100) peptide ERSLWIIFSKNLNIK]            6.52
5  IFSQNMNIKLQMPLY [Cup a 1 (71-85) peptide IFSQNMNIKLQMPLY]            5.31
6  NLALSIKYNKEGDSM [Dac g 2 (16-30) peptide NLALSIKYNKEGDSM]            5.05
7  KAFVLDSDNLIPKVV [Que a 1 (21-35) peptide KAFVLDSDNLIPKVV]            5.58
